- assayed-system: T1, extracellular domain of activin receptor type IIB (ActRIIBecd), biotinylated (Homo sapiens (Human), UniProt Q13705 27-117, amino-biotinylated with amine-PEG3-Biotin)
- T1 construct: immobilised on a streptavidin-coated sensor chip; also called biotinylated ActRIIBecd; extracellular domain of ActRIIB
- T1 sequence: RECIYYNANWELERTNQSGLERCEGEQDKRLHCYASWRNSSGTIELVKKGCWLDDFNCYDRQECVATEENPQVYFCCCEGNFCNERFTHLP
- assay: BIAcore SPR, biotinylated ActRIIBecd on chip; SD ±12.34 nM
outcome-measure: Kd (nM)
Answers are plain numbers, in nM.

Please give the measured Kd for this binder: Recombinant polypeptide of clones 12 + 25 (designed binder) AQAKHKQYKRLKSSCKRHPLYTYPASPKPMRHKMRSCACCAGGLRNRTGTV
51.2
